Target: T1, dog albumin (dog Alb) (dog, UniProt P49822 25-608)
T1 construct: also called Canine albumin
T1 sequence (P49822 25-608 limits assumed): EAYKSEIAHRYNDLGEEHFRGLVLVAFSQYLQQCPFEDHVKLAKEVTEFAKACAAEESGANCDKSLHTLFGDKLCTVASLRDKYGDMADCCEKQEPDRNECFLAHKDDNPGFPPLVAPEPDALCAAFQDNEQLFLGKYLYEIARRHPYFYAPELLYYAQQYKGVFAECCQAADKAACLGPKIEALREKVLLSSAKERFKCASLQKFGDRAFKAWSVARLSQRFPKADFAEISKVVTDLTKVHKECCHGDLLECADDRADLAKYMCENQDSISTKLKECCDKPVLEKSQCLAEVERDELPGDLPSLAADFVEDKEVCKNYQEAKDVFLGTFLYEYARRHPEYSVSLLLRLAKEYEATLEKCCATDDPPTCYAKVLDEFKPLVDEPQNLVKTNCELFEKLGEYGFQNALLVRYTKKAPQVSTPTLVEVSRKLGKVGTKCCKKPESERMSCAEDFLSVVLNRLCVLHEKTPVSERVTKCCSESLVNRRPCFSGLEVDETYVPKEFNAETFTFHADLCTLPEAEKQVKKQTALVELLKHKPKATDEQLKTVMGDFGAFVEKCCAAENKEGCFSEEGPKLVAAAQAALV
Assay: ELISA: coated dog Alb, anti-his6 PO
Listing: maximal absorbance value of selected binders
Give the quantity in A450, number only.

These recorded examples may help you get a feel for the data.
{"Binder": "SVT15-3FW4M-GS2-SVA12M2-H6 (bispecific antibody) QVQLQESGGGLVQTGGSLRLSCRASGRAFANYHFGWFRQAPGKDREFVASISWKGGSTYYANFALGRFTSSVDRAESSVYLQMSGLTPEDTATYYCAAHDGGDWNYHTGMDYWGQGTQVTVSSGGGGSGGGSEVQLVESGGGLVQAGGSLRLSCAASGRTFSYYPMAWFRQAPGQEREFVAAIIGADTTYYADSLKGRFTISRDNAKNMVYLQMNSLKPEDTAVYYCAARNTYWSDVYYREGQYTNWGQGTQVTVSSHHHHHH", "maximal absorbance value (A450)": 1.55}
{"Binder": "SVT02-GS2-SVA12M2-H6 (bispecific antibody) QVQLQQSGGGSVQAGGSLRLSCVGPQRTFSTYGMGWFRQAPGKEREFVAGINYKGDTTYYADSVKGRFTISRDNAKNTLYLQMDSLKPEDRAVYQCARKGGLGGDYRDAGQYRYWGQGTQVTVSSGGGGSGGGSEVQLVESGGGLVQAGGSLRLSCAASGRTFSYYPMAWFRQAPGQEREFVAAIIGADTTYYADSLKGRFTISRDNAKNMVYLQMNSLKPEDTAVYYCAARNTYWSDVYYREGQYTNWGQGTQVTVSSHHHHHH", "maximal absorbance value (A450)": 1.91}
{"Binder": "SVT16-L123Q-GS2-SVA12M2-H6 (bispecific antibody) QVQLQESGGGSVQAGDSLRLSCAASGRTISNYAMGWFRQAPGKQREFVAAISRSDNTYYTDSVKGRFTISRDNAKNTLYLQMNSLKPEETAVYYCAADPNLMYESKWKYRALEAWGQGTQVTVSSGGGGSGGGSEVQLVESGGGLVQAGGSLRLSCAASGRTFSYYPMAWFRQAPGQEREFVAAIIGADTTYYADSLKGRFTISRDNAKNMVYLQMNSLKPEDTAVYYCAARNTYWSDVYYREGQYTNWGQGTQVTVSSHHHHHH", "maximal absorbance value (A450)": 1.78}

--- query ---
Query string: What maximal absorbance value value was documented for this binder, SVT06-GS2-SVA12M2-H6 (bispecific antibody) QVQLQESGGGSVQAGGSLRLSCTASELSYDDYTIAWFRRAAGEGRVEDGEGVASITKSYDRAYDNKINYGHSVKGRFTISRDNAKNTVYLQMTDLLPSDTAVYYCALDITPPGGVGASLTEGFLFDYWGQGTQVTVSSGGGGSGGGSEVQLVESGGGLVQAGGSLRLSCAASGRTFSYYPMAWFRQAPGQEREFVAAIIGADTTYYADSLKGRFTISRDNAKNMVYLQMNSLKPEDTAVYYCAARNTYWSDVYYREGQYTNWGQGTQVTVSSHHHHHH ?
Result string: 1.67
